Target: human EHMT2 913-1193 (Homo sapiens)
Construct: recombinant purified human EHMT2 913-1193, Viva; purchased Viva
Sequence (Q96KQ7 913-1193): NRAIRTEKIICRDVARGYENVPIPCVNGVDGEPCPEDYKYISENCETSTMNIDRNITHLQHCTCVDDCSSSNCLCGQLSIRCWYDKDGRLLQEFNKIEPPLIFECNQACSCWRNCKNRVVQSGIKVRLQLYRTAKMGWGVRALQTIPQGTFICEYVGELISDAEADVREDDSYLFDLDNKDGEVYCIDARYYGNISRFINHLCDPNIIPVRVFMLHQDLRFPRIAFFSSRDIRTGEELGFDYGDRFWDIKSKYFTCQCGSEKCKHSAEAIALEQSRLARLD
Assay: EHMT2 enzyme assay on histone peptide substrate (EHMT2 PEP)
Format: biochemical
Conditions: Table VII; read-out: EHMT2 PEP IC50
measured_metric: IC50

Example cases with answers are listed next.
| compound | IC50 |
| --- | --- |
| CNc1ccnc(Nc2ccc(OC)c(OC[C@H]3CN(C)CCO3)c2)n1 | > 10 µM |
| CNc1cc(C2CCOCC2)c2cc(OC)c(CNCCN3CCCC3)cc2n1 | < 0.1 µM |
| CNC[C@H](COc1cc(Nc2nccc(NC)n2)ccc1OC)OC | 1 to 10 µM |
| CNc1cc2cc(OCCCN3CCCC3)c(OC)cc2cc1Cl | 1 to 10 µM |
| Cc1cc(N(C)C)nc(Nc2ccc(NC(=O)Nc3ccc(Cl)cc3)cc2)n1 | 1 to 10 µM |
| CCN1CCC(O)(COc2cc(Nc3nccc(NC)n3)ccc2OC)C1 (stereo not drawn) | > 10 µM |
| CNc1cc(C)nc(Nc2ccc(C)c(C(=O)NCc3ccon3)c2)n1 | > 10 µM |
| CNc1ccnc(Nc2ccc(OC)c(OC[C@H](O)CN3CCC3)c2)n1 [Compound 1047] | < 0.1 µM |

Give IC50 for all compounds that follow.
1. CNCCNC(C)c1cc(Nc2nc(C)cc(NC)n2)ccc1OC (stereo not drawn)
2. CNc1ccnc(Nc2cnc(OC)c(OCCCN3CCC3)c2)n1
3. CNc1ccnc(Nc2ccc(OC)c(ONC[C@@H]3CCCN3)c2)n1
4. CNc1ccnc(Nc2ccc(OC)c(OC[C@@H](C)CN3CCC3)c2)n1
5. CNc1cc(C)nc(Nc2ccc(OC)c(CNCCN(C)C)c2)n1
6. CNc1cc(C2CCOCC2)c2cc(OC)c(OC[C@H](O)CN3CCC3)cc2n1

Result block:
["0.1 to 1 µM", "0.1 to 1 µM", "1 to 10 µM", "1 to 10 µM", "< 0.1 µM", "< 0.1 µM"]

Dear colleague, could you send me IC50 for each of the items below? Thanks.
1. CNc1ccnc(Nc2ccc(OC)c(OC[C@@H](CN3CCCC3)OC)c2)n1
2. CNc1ccnc(Nc2cnc(OC)c(OCCCN3CCCC3)c2)n1
3. CNCCNCc1cc(Nc2nc(C)cc(NC)n2)ccc1OC
4. CNc1ccnc(Nc2ccc(OC)c(OC[C@@H]3CCN(C4CC4)C3)c2)n1
5. CCc1ccccc1NC(=O)Nc1ccc(Nc2nc(C)cc(N3CCCC3)n2)cc1
6. CNc1cc(C)nc(Nc2ccc(OC)c(CNCCN3CCC3)c2)n1
7. CNc1ccnc(Nc2ccc(OC)c(OC[C@@H](O)CN3CCC3)c2)n1
8. Cc1ccc(NC(=O)Nc2ccc(Nc3nc(C)cc(N4CCCC4)n3)cc2)cc1

Result block:
["0.1 to 1 µM", "0.1 to 1 µM", "0.1 to 1 µM", "0.1 to 1 µM", "1 to 10 µM", "< 0.1 µM", "1 to 10 µM", "1 to 10 µM"]

Working through the 2 compounds below one at a time, give IC50 for each.
1. CNc1cc(C)nc(Nc2ccc(OC)c(COCCN3CCCC3)c2)n1
2. CNc1ccnc(Nc2ccc(OC)c(OCC[C@H]3CCCN3)c2)n1

Result block:
1. < 0.1 µM
2. 1 to 10 µM

---

molecular target: human EHMT2 913-1193 (Homo sapiens, UniProt Q96KQ7); construct: recombinant purified human EHMT2 913-1193, Viva; purchased Viva; assay: EHMT2 enzyme assay on histone peptide substrate (EHMT2 PEP); type: biochemical; conditions: Table III; read-out: EHMT2 PEP (IC50 μM)
measured_metric: IC50

For orientation, consider the following solved cases.
| compound | IC50 |
| --- | --- |
| CNc1cc(C)nc(Nc2cc(F)c(OC)c(OCCCN3CCCC3)c2)n1 [Compound 301] | > 10 µM |
| COc1ccc(Nc2ccc3cn(C)nc3n2)cc1OCCCN1CCCC1 [Compound 402] | > 10 µM |
| COc1ccc(Nc2cccc3[nH]ccc23)cc1OCCCN1CCCC1 [Compound 265] | > 10 µM |

Batch of 3 compounds: report IC50 for each.
1. COc1ccc(Nc2nccc(NCC3CCOCC3)n2)cc1NCCCN1CCCC1 [Compound 350]
2. CNc1ccnc(Nc2cccc(OCC(F)CN3CCCC3)c2)n1 (stereo not drawn) [Compound 276]
3. COc1ccc(Nc2nccc(NCC3COC3)n2)cc1OCCCN1CCCC1 [Compound 256]

Result block:
0.1 to 1 µM
> 10 µM
> 10 µM

---

target: human EHMT2 913-1193 (Homo sapiens, UniProt Q96KQ7); construct: recombinant purified human EHMT2 913-1193, Viva; purchased Viva; assay: EHMT2 enzyme assay on histone peptide substrate (EHMT2 PEP); format: biochemical; details: Table III; read-out: EHMT2 PEP (IC50 μM)
measured_metric: IC50

Before answering, review these 8 worked examples.
| compound | measured_metric | meas_value |
| --- | --- | --- |
| CNc1cc(C)nc(Nc2ccc(OC)c(COC3CCN(C)C3)c2)n1 (stereo not shown) | IC50 | 0.1 to 1 µM |
| CNc1cc(COC)nc(Nc2ccc(OC)c(OCCCN3CCCC3)c2)n1 | IC50 | 0.1 to 1 µM |
| COc1ccc(Nc2nccc(NCC3CCOCC3)n2)cc1OC1CCC2(CC1)CN(C)C2 | IC50 | > 10 µM |
| CNc1ccnc(Nc2ccc(OC)c(OCCCN3CCCC3C)c2)n1 (stereo not shown) | IC50 | 0.1 to 1 µM |
| CNc1ccnc(Nc2ccc(OC)c(OC[C@@H](O)CN3CCCC3)c2)n1 (single isomer, unassigned) [Compound 377] | IC50 | 1 to 10 µM |
| CNc1ccnc(Nc2cccc(OCC(F)(F)CN3CCCC3)c2)n1 | IC50 | > 10 µM |
| CNc1nc(Nc2ccc(OC)c(OCCCN3CCCC3)c2)nc(C)c1F | IC50 | 0.1 to 1 µM |
| COc1ccc(NCCCN2CCCC2)cc1Nc1nccc(NCC2CCOCC2)n1 | IC50 | > 10 µM |

For every listed record, write down its IC50.
1. CCNC(=O)c1cccc(Nc2nccc(NC)n2)c1
2. CNc1cc(C)nc(Nc2cc(OCCCN3CCCC3)c(OC)cc2F)n1
3. CNc1ccnc(Nc2ccc3ccn(CCN4CCCC4)c(=O)c3c2)n1
4. COc1cnc(Nc2cnc3ccccn23)cc1OCCCN1CCCC1

Result block:
1: > 10 µM; 2: 1 to 10 µM; 3: 1 to 10 µM; 4: 1 to 10 µM

Give me IC50 for each of these compounds, listed below.
1. CNc1ccnc(Nc2ccc3c(c2)C(=O)N(CCN2CCCC2)CC3)n1
2. CNc1ccnc(Nc2ccc(OC)c(OCCCN3CCC3)c2)n1
3. COc1ccc(Nc2nccc(-c3cnn(C)c3)n2)cc1OCCCN1CCCC1
4. CNc1ccnc(Nc2ccc(OC)c(OC[C@H](O)CN3CCCC3)c2)n1 [Compound 299]

Result block:
> 10 µM
< 0.1 µM
> 10 µM
< 0.1 µM

Each compound below has a recorded value; state its IC50.
1. CNc1ccnc(Nc2ccc(OC)c(OCCCN3CCC(S(C)(=O)=O)C3)c2)n1 (stereo not shown)
2. CNc1cc(CC(F)(F)F)nc(Nc2ccc(OC)c(OCCCN3CCCC3)c2)n1
3. CNc1cc(C)nc(Nc2ccc(OC)c(OCC3CCN(C4COC4)C3)c2)n1 (stereo not shown)
4. CNc1ccnc(Nc2cccc(COCCN3CCCC3)n2)c1
5. CCOc1ccc(Nc2nc(C)cc(NC)n2)cc1OCCCN1CCCC1
6. CNc1cc(OC)nc(Nc2ccc(OC)c(OCCCN3CCCC3)c2)n1

Result block:
1: > 10 µM; 2: 1 to 10 µM; 3: 0.1 to 1 µM; 4: > 10 µM; 5: > 10 µM; 6: > 10 µM

---

Biological target: human EHMT2 913-1193 (Homo sapiens)
Construct: recombinant purified human EHMT2 913-1193, Viva; purchased Viva
Sequence (Q96KQ7 913-1193): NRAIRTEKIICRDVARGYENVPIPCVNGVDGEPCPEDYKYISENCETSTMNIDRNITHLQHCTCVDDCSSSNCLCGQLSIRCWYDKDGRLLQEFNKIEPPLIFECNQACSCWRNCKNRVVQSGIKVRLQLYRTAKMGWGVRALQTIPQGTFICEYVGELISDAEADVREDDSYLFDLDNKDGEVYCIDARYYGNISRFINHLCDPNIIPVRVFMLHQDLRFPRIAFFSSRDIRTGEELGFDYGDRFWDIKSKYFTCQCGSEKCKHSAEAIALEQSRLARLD
Experiment: EHMT2 enzyme assay on histone peptide substrate (EHMT2 PEP)
Format: biochemical
Settings: Table II; read-out: EHMT2 PEP (IC50 μM)
Provide the recorded IC50 for the entries that follow.

Use the examples below as a reference point.
| structure_as_smiles | IC50 |
| --- | --- |
| COc1ccc(Nc2nccc(NCCS(=O)(=O)N(C)C)n2)cc1OCCCN1CCCC1 | 0.1 to 1 µM |
| O=C1Cc2cc(C(=O)NCCNc3nccc(NCC4CCNCC4)n3)ccc2N1 | 1 to 10 µM |
| CNC(=O)c1cnc(Nc2ccc(OC)c(OCCCN3CCCC3)c2)nc1 | 1 to 10 µM |
| CNc1nc(Nc2ccc(OC)c(OCCCN3CCCC3)c2)ncc1C#N | > 10 µM |

Answer for every listed entry: what is its IC50? The entries follow.
1. COc1ccc(Nc2nccc(CN(C)C3CCOCC3)n2)cc1OCCCN1CCCC1
2. CCCCNc1ncc(C(N)=O)c(NCC2CCNCC2)n1

Result block:
["> 10 µM", "> 10 µM"]
